# Test system: MTB H37Rv ATCC 27294
Assignment: determine reported MIC for the given compounds.
One number for each entry, in µM.

Before answering, review these 3 worked examples.
COMPOUND | PROPERTY_LABEL | OBS_VALUE
CO[C@H]1/C=C/O[C@@]2(C)Oc3c(C)c(O)c4c(=O)c(c5oc6cc(N7CCN(CC(C)C)CC7)cc(OCCCCN7CCN(C(=O)Cn8ccnc8)CC7)c6nc-5c4c3C2=O)NC(=O)/C(C)=C\C=C\[C@H](C)[C@H](O)[C@@H](C)[C@@H](O)[C@@H](C)[C@H](OC(C)=O)[C@@H]1C | MIC | 0.024
CO[C@H]1/C=C/O[C@@]2(C)Oc3c(C)c(O)c4c(=O)c(c5oc6cc(N7CCN(CC(C)C)CC7)cc(OCc7cccc(CN8CCN(C(=O)Cn9ccnc9)CC8)c7)c6nc-5c4c3C2=O)NC(=O)/C(C)=C\C=C\[C@H](C)[C@H](O)[C@@H](C)[C@@H](O)[C@@H](C)[C@H](OC(C)=O)[C@@H]1C [Compound 12c] | MIC | 0.0048
CO[C@H]1/C=C/O[C@@]2(C)Oc3c(C)c(O)c4c(=O)c(c5oc6cc(N7CCN(C(=O)C(C)(C)C)CC7)cc(OCc7ccc(CN8CCOCC8)cc7)c6nc-5c4c3C2=O)NC(=O)/C(C)=C\C=C\[C@H](C)[C@H](O)[C@@H](C)[C@@H](O)[C@@H](C)[C@H](OC(C)=O)[C@@H]1C [Compound 17f] | MIC | 0.027

Please give MIC, item by item, for the list that follows.
1. CO[C@H]1/C=C/O[C@@]2(C)Oc3c(C)c(O)c4c(=O)c(c5oc6cccc(OCCCCN7CCN(C(=O)OC(C)(C)C)CC7)c6nc-5c4c3C2=O)NC(=O)/C(C)=C\C=C\[C@H](C)[C@H](O)[C@@H](C)[C@@H](O)[C@@H](C)[C@H](OC(C)=O)[C@@H]1C
2. CO[C@H]1/C=C/O[C@@]2(C)Oc3c(C)c(O)c4c(=O)c(c5oc6cccc(OCc7ccc(CN8CCN(C(=O)Cn9ccnc9)CC8)cc7)c6nc-5c4c3C2=O)NC(=O)/C(C)=C\C=C\[C@H](C)[C@H](O)[C@@H](C)[C@@H](O)[C@@H](C)[C@H](OC(C)=O)[C@@H]1C [Compound 16b]

[0.024, 0.029]

// CO[C@H]1/C=C/O[C@@]2(C)Oc3c(C)c(O)c4c(=O)c(c5oc6cccc(OCCCCN7CCN(C)CC7)c6nc-5c4c3C2=O)NC(=O)/C(C)=C\C=C\[C@H](C)[C@H](O)[C@@H](C)[C@@H](O)[C@@H](C)[C@H](OC(C)=O)[C@@H]1C : MIC value = 0.092
